B1: PDLIM7 (parent)
chain: AAGGVPGGGSNNGKTPVCHQCHKV

variants of: B1; experiment: protein stability index of a GFP-peptide fusion (GPS, HEK-293T) (PSI 1-6); higher = more stable; settings: c terminus: a fixed tail appended;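 also: lentivirally expressed fusions sorted by FACS into six bins by GFP to DsRed ratio, PSI derived from sequencing read proportions per bin multiplied by bin number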
metric: protein stability index
Write the value as a bare number.

Solved entries:
G7N	4.05
A2N	4.08
P6N	3.46
G7R	3.89

// sample "G8P" , its protein stability index was 3.8

// sample "P6C" , its protein stability index was 3.05

// sample "G9R" , its protein stability index was 3.06
